assay: probe aLefty1 binding on compound microarray – biochemical, small-molecule microarray, 635/667 nm fluorescence, primary screen (AID 1153);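 note: score merges spot fluorescence with signal-to-noise ratio from the scanned slide images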
condition notes: higher = more signal
I'd appreciate it if you could supply composite z-score values for the items below.

Use these answered entries as a reference point.
| compound | composite z-score |
| --- | --- |
| O=[N+]([O-])c1ccc(C[n+]2ccc(-c3ccc(CO)cc3)cc2)o1 | -0.0764 |
| O=C1c2ccccc2C(=O)C2CC([C@H]3Oc4ccccc4S(=O)(=O)N4CCC[C@@H]34)=CCC12 (stereo partly drawn) | -0.196 |
| CCOC(=O)C[C@H]1[C@H](OC(=O)c2ccc(C(=O)c3ccccc3)cc2)[C@@H](NC(=O)C2CCCCC2)c2cc(OCCCO)ccc2N1C(=O)Cc1ccc(OC)cc1 | 0.271 |
| Cc1ccc(C(C)CC(O)C2C=CC3C(=O)N(Cc4ccccc4)C(=O)C3N2n2cnnc2)o1 (stereo not drawn) | 1.21 |

# batch: return composite z-score for each of the 4 compounds below
1. CC(C)=CCCC(C)=CC(O)C1C=CC2C(=O)N(c3ccccc3)C(=O)C2N1Nc1ccc([N+](=O)[O-])cc1 (stereo not drawn)
2. COCCCNC(=O)[C@@]1(Cc2ccccc2CN=[N+]=[N-])N=C(c2ccc(OCCCO)cc2)O[C@H]1c1ccccc1N=[N+]=[N-]
3. CN(C)CCCC[C@@H]1NC(=O)[C@H]2C[C@@H](C(=O)NCCCCCCNC(=O)CS)[C@@H](c3ccc(O)cc3)N2C1=O
4. NC(=O)[C@@H]1[C@H]2C(=O)O[C@H](c3ccccc3)[C@H](c3ccccc3)N2[C@H](c2ccccc2OCCO)[C@@]12C(=O)Nc1ccc(C#CCCO)cc12

Reply text:
1: -0.131; 2: 0.0643; 3: 0.0048; 4: -0.0464

###

Could you please report measured z-score for the items listed next?
system tested: NADPH oxidase 2 (Homo sapiens) (UniProt P04839)
Sequence (P04839 whole entry, looked up): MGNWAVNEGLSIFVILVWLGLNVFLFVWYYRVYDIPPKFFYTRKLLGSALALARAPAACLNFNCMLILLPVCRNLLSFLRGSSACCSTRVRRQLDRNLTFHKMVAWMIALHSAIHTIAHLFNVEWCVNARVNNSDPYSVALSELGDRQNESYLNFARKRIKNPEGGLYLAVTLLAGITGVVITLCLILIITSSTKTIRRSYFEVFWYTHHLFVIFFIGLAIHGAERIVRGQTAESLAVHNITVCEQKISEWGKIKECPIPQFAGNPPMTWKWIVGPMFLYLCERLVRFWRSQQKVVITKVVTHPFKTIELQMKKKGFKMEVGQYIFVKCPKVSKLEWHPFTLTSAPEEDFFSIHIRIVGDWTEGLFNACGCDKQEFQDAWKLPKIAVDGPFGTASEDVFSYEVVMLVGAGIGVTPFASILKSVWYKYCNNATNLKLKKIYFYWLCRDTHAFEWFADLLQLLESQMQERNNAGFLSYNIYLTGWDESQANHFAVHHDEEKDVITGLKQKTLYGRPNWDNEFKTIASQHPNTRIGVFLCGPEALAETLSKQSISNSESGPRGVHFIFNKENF
assay: compounds shifting NOX2 Amplex Red fluorescence – cell-based, HEK293-NOX2, PMA-stimulated, NOX inhibitor project, primary screen (AID 1159); note: test concentration not given here
condition notes: 45 min, higher = more signal, called active from +8 up or from −8 down
Answers are plain numbers.

Completed entries (count: 5):
| molecule | quantitative readout |
| --- | --- |
| COc1cc2c(cc1OC)CN(C(=O)[C@@H]1[C@H]3C(=O)O[C@H](c4ccccc4)[C@H](c4ccccc4)N3[C@H](c3ccc(OCCO)cc3)[C@@]13C(=O)Nc1ccc(C#CCCO)cc13)CC2 | -0.303 |
| Cc1ccccc1C(O)C1C=CC2C(=O)N(Cc3ccccc3)C(=O)C2N1n1cnnc1 (stereo unspecified) | -0.4 |
| COCCOC(=O)N1C(=O)[C@@]2(c3cc(C#Cc4ccc(OC)cc4)ccc31)[C@H](C(N)=O)[C@H]1C(=O)O[C@H](c3ccccc3)[C@H](c3ccccc3)N1[C@@H]2c1ccc(OCCO)cc1 | 0.933 |
| COC(=O)[C@@]1(Cc2ccc(OC)cc2)[C@H]2c3cc(C(=O)N4CCCC4)n(CCc4ccc(O)c(OC)c4)c3C[C@H]2CN1C(=O)c1ccccc1 | -0.124 |
| C[C@H]1ON(c2ccccc2)[C@@H](c2ccccc2)[C@@H]1C(=O)N1C(=O)OC[C@@H]1c1ccccc1 | 0.198 |

Next item in the queue.
Briefly, z-score measured for `CC(C)(C)OC(=O)CC[C@@]1(C(=O)N2CCCCC2)N=C(c2ccc(OCCCO)cc2)O[C@@H]1c1ccccc1CN=[N+]=[N-]` : -0.601

###

assay: small molecules captured by biotinylated probe aFST – biochemical, small-molecule microarray, fluorescence 635/667, stem cell growth factor project, primary screen (AID 1086);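 note: score merges 667 nm fluorescence with signal-to-noise of each printed compound spot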
condition notes: higher = more signal
Can you tell me composite z-score for the items I'm about to list?
Give bare numbers.

| compound | composite z-score |
| --- | --- |
| O=C1O[C@H](c2ccccc2)[C@H](c2ccccc2)N2[C@H]1[C@@H](C(=O)N1CCN(c3ncccn3)CC1)[C@]1(C(=O)Nc3ccc(C#CCCO)cc31)[C@H]2c1ccccc1OCCO | 0.312 |

Record composite z-score for all entries; do not skip any.
1. COc1cc2c(cc1OC)CN(C(=O)[C@@H]1[C@H]3C(=O)O[C@H](c4ccccc4)[C@H](c4ccccc4)N3[C@H](c3ccc(OCCO)cc3)[C@@]13C(=O)Nc1ccc(C#CCCO)cc13)CC2
2. C=CCN1C(=O)[C@@]2(O[C@@H](CCO)[C@H]([Si](C)(C)c3ccc(OC)cc3)[C@H]2C)c2cc(NC(=O)[C@H](C)O)ccc21

Reply text:
[0.0774, 0.005]

Provide composite z-score for all items below, preserving their order.
1. COC(=O)[C@@]1(Cc2ccc(F)cc2)[C@H]2c3cc(C(=O)N4CCCC4)n(Cc4ccccc4)c3C[C@H]2CN1C(=O)c1ccccc1
2. [N-]=[N+]=Nc1ccccc1[C@H]1OC(c2ccc(OCCCO)cc2)=N[C@@]1(Cc1ccccc1)C(=O)NCc1ccccc1
3. COC(=O)c1ccc(OC)c(/C=C\CC(CCc2ccccc2)OC(=O)c2ccncc2)c1 (stereo not given)
4. CN(C)CCCNC(=O)[C@@]1(Cc2ccccc2I)c2ccccc2C(=O)N(Cc2ccccc2Cl)[C@H]1c1ccc(CO)cc1

Reply text:
1: 1.23; 2: 0.686; 3: -0.432; 4: 0.294

// for each compound in input: emit composite z-score
1. COc1ccc(C#Cc2ccc3c(c2)[C@]2(C(=O)N3)[C@H](C(N)=O)[C@H]3C(=O)O[C@H](c4ccccc4)[C@H](c4ccccc4)N3[C@@H]2c2ccc(O)cc2)cc1
2. CC(C)[Si](C#C[Si](C(C)C)(C(C)C)C(C)C)(O[C@H](C)c1cn(Cc2cccc(Cl)c2)nn1)C(C)C
3. COc1ccccc1CN1C(=O)c2ccccc2[C@@H](C(=O)NCC(C)C)[C@@H]1c1ccc(CO)cc1

Reply text:
0.722
0.323
0.0346

Provide composite z-score values for the following items, in order.
1. COC(=O)C(CC#Cc1ccc2c(c1)[C@]1(C(=O)N2)[C@H](c2ccc(O)cc2)N2[C@H](c3ccccc3)[C@H](c3ccccc3)OC(=O)[C@H]2[C@@H]1C(=O)O)C(=O)OC
2. O=C1NC(=O)C2C1C=CC(C(O)c1ccc3c(c1)OCO3)N2Nc1ccc(Cl)cc1Cl (stereo not given)
3. C[N+](C)(C)CCCC[C@@H]1NC(=O)[C@@H]2C[C@H](C(=O)O)[C@H](c3cccc(OCCO)c3)N2C1=O

Reply text:
1. 1.25
2. 0.176
3. -0.184

Provide composite z-score for all items below, preserving their order.
1. COCCOC(=O)N1C(=O)[C@@]2(c3cc(C#Cc4ccc(OC)cc4)ccc31)[C@H](C(=O)N1CCc3cc(OC)c(OC)cc3C1)[C@H]1C(=O)O[C@H](c3ccccc3)[C@H](c3ccccc3)N1[C@@H]2c1ccc(O)cc1
2. CCC[C@@H]1C[C@@]1(CCC)[C@@H](NC(=O)c1cccs1)c1ccc(Cl)cc1
3. COc1ccc(C(=O)Nc2ccc3c(c2)[C@]2(O[C@@H](CCO)[C@H]([Si](C)(C)c4ccc(OC)cc4)[C@H]2C)C(=O)N3Cc2ccccc2)cc1
4. O=C(C=C(CC(O)c1cccc(Cl)c1)OCCF)OCCF (stereo not given)
5. O=C1c2ccccc2[C@](Cc2ccccc2I)(C(=O)NC2CC2)[C@H](c2ccc(CO)cc2)N1Cc1ccccc1Cl
6. O=c1c2ccc(Br)cc2nc(-c2ccccc2)n1Cc1cccc(O)c1

Reply text:
-0.0689
-0.711
-0.0897
0.0462
0.496
0.831

Go through the items and report each one's composite z-score.
1. COC(=O)[C@]1(Cc2ccccc2N=[N+]=[N-])N=C(c2ccc(OCCCO)cc2)O[C@@H]1c1ccccc1
2. CC(C)CN1C(=O)[C@@]2(Cc3ccccc31)c1ccccc1C(=O)N(Cc1ccccc1)[C@H]2c1ccc(CO)cc1
3. CN(C)CCCN1C(=O)[C@@]2(Cc3ccccc31)c1ccccc1C(=O)N(Cc1ccccc1)[C@H]2c1ccc(CO)cc1
4. CCOC(=O)C1=CC[C@@H](c2ccccc2)N(S(=O)(=O)c2ccc(C)cc2)[C@H]1C=C(C)C
5. CC1CC/C=C\[C@H]2OC34C=CCN(Cc5ccccc5)C(=O)[C@H]3N(CCO)C(=O)[C@@H]4C2C(=O)O1 (stereo not given in full)
6. CCOC(=O)C[C@H]1[C@H](OC(=O)c2cc3ccccc3oc2=O)[C@@H](NC(=O)c2ccc3ccccc3n2)c2cc(OCCCO)ccc2N1C(=O)c1ccc2ccccc2n1

Reply text:
1: 0.182; 2: -0.759; 3: 1.02; 4: 1.58; 5: -0.253; 6: 0.787

Need composite z-score for each of these compounds.
1. O=C1N(CCS(=O)(=O)c2ccccc2)Cc2ccccc2C[C@@]12COC(c1ccc(OCCCO)cc1)=N2
2. C#CCNS(=O)(=O)N(C)C
3. CN(C)CCCCCCNC(=O)[C@@H]1C[C@@H]2C(=O)NCC(=O)N2[C@@H]1c1ccc(O)cc1
4. CCCc1cc2c(n1Cc1ccc(OC)cc1)C(C)C1CN(C(=O)c3ccccc3)C(C)(C(=O)OC)C21 (stereo not given)
5. COC(=O)[C@@]1(Cc2ccccc2)[C@H]2c3cc(C(=O)N(C)C)n(Cc4ccccn4)c3C[C@H]2CN1C(=O)c1ccccc1

Reply text:
1: 1.58; 2: -0.136; 3: 0.92; 4: 1.14; 5: 1.27

Value source: PubChem BioAssay
